molecular target: HLA-A*3101 (human); test: inhibition of 125I probe peptide binding to purified HLA
pIC50: −log10 of the molar value.
MEASURED_PROPERTY: pIC50

• IVWKDIFHK (synthetic analog peptide) [Her2/neu.167.V2] = 6.61
• ILWKDIFHK (synthetic peptide) [Her2/neu.167] = 7.09
• HVVPWDQLFR (synthetic analog peptide) [Her2/neu.478.V2] = 6.41
